# System: K98450-129-R-PDC multicell spheroids, viability
# measurement notes: Anticancer human tumor K98450-129-R-PDC patient-derived colon adenocarcinoma cell line growth inhibition [PI3K]
# conditions used: second compound 0.1 µM; first compound 0.1 µM; stronger effect = lower value
parameter: viability, T/C (%)
One number for each entry, in %.

compound="C=CC(=O)N1CCN(c2nc(=O)n(-c3c(C)ccnc3C(C)C)c3nc(-c4c(O)cccc4F)c(F)cc23)C(C)C1 (stereo unspecified) + Cc1nc(NC(=O)N2CCCC2C(N)=O)sc1-c1ccnc(C(C)(C)C(F)(F)F)c1" reported_result=94
compound="Cn1ncnc1[C@H]1c2n[nH]c(=O)c3cc(F)cc(c23)N[C@@H]1c1ccc(F)cc1 + Cc1nc(NC(=O)N2CCCC2C(N)=O)sc1-c1ccnc(C(C)(C)C(F)(F)F)c1" reported_result=97.6
compound="CC(Cn1ccc(-c2ccc(C#N)c(Cl)c2)n1)NC(=O)c1cc(C(C)O)[nH]n1 (stereo unspecified) + Cc1nc(NC(=O)N2CCCC2C(N)=O)sc1-c1ccnc(C(C)(C)C(F)(F)F)c1" reported_result=99.3
compound="CCCS(=O)(=O)Nc1ccc(F)c(C(=O)c2c[nH]c3ncc(-c4ccc(Cl)cc4)cc23)c1F + CC(Nc1ncnc2nc[nH]c12)c1cc2cccc(Cl)c2c(=O)n1-c1ccccc1" reported_result=94.6
compound="CNC(=O)c1ccc(N2C(=S)N(c3ccc(C#N)c(C(F)(F)F)c3)C(=O)C2(C)C)cc1F + CC(Nc1ccc2c(c1)OCCn1cc(N3C(=O)OCC3C(F)F)nc1-2)C(N)=O" reported_result=93.9
compound="Cn1ncnc1[C@H]1c2n[nH]c(=O)c3cc(F)cc(c23)N[C@@H]1c1ccc(F)cc1 + CC(Nc1ncnc2nc[nH]c12)c1cc2cccc(Cl)c2c(=O)n1-c1ccccc1" reported_result=114
compound="CCCS(=O)(=O)Nc1ccc(F)c(C(=O)c2c[nH]c3ncc(-c4ccc(Cl)cc4)cc23)c1F + Cc1nc(NC(=O)N2CCCC2C(N)=O)sc1-c1ccnc(C(C)(C)C(F)(F)F)c1" reported_result=96.9
compound="CC1(C)CCC(Nc2ncc(C(F)(F)F)c(-c3c[nH]c4c(P(C)(C)=O)c(C#N)ccc34)n2)CN1 (stereo unspecified) + COc1c(OCCCN2CCOCC2)ccc2c3n(c(=NC(=O)c4cnc(N)nc4)nc12)CCN3" reported_result=86.6

Consider the following items and state reported viability, T/C for each.
1. C#Cc1c(F)ccc2cc(O)cc(-c3ncc4c(N5CC6CCC(C5)N6)nc(OCC56CCCN5CC(F)C6)nc4c3F)c12 (stereo unspecified) + Cc1nc(NC(=O)N2CCCC2C(N)=O)sc1-c1ccnc(C(C)(C)C(F)(F)F)c1
2. CC(C)n1nc(-c2ccc3oc(N)nc3c2)c2c(N)ncnc21 + CC(Nc1ccc2c(c1)OCCn1cc(N3C(=O)OCC3C(F)F)nc1-2)C(N)=O
3. CNC(=O)c1ccc(N2C(=S)N(c3ccc(C#N)c(C(F)(F)F)c3)C(=O)C2(C)C)cc1F + CC(Nc1ncnc2nc[nH]c12)c1cc2cccc(Cl)c2c(=O)n1-c1ccccc1

Found:
1. 97
2. 71.5
3. 94

====

For each of the compounds below, state its viability, T/C.
# System: K98450-129-R-PDC multicell spheroids, viability
# measurement notes: Anticancer human tumor K98450-129-R-PDC cell line growth inhibition [PI3K];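 further: spheroids exposed to agents for seven days before read-out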
# conditions used: second compound 0.0316 µM; first compound 10 µM; stronger effect = lower value

For orientation, consider the following solved cases.
compound="C=CC(=O)N1CCN(c2nc(=O)n(-c3c(C)ccnc3C(C)C)c3nc(-c4c(O)cccc4F)c(F)cc23)C(C)C1 (stereo not drawn) + CC(Nc1ncnc2nc[nH]c12)c1cc2cccc(Cl)c2c(=O)n1-c1ccccc1" reported_result=44.4%
compound="Cn1ncc(Cl)c1-c1cc(C(=O)NC(CN)Cc2cccc(F)c2)sc1Cl (stereo not drawn) + COc1c(OCCCN2CCOCC2)ccc2c3n(c(=NC(=O)c4cnc(N)nc4)nc12)CCN3" reported_result=58.5%

Let us examine a further case.
Readout viability, T/C for CNC(=O)c1ccc(N2C(=S)N(c3ccc(C#N)c(C(F)(F)F)c3)C(=O)C2(C)C)cc1F + CC(Nc1ccc2c(c1)OCCn1cc(N3C(=O)OCC3C(F)F)nc1-2)C(N)=O , test system K98450-129-R-PDC multicell spheroids, viability, was 112%

====

# Tested on: K98450-129-R-PDC multicell spheroids, viability
# measurement notes: Anticancer human tumor K98450-129-R-PDC cell line growth inhibition [PI3K];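 further: spheroids exposed to agents for seven days before read-out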
# conditions used: second compound 0.01 µM; first compound 10 µM; stronger effect = lower value
Could you please report measured viability, T/C for the items listed next?

# return viability, T/C for each item in the list
1. C[C@@H](NC(=O)c1ncnc(N)c1Cl)c1ncc(C(=O)Nc2cc(C(F)(F)F)c(Cl)cn2)s1 + CC(Nc1ccc2c(c1)OCCn1cc(N3C(=O)OCC3C(F)F)nc1-2)C(N)=O
2. CC(C)NCC(C(=O)N1CCN(c2ncnc3c2C(C)CC3O)CC1)c1ccc(Cl)cc1 (stereo unspecified) + COc1c(OCCCN2CCOCC2)ccc2c3n(c(=NC(=O)c4cnc(N)nc4)nc12)CCN3
3. CC(Cn1ccc(-c2ccc(C#N)c(Cl)c2)n1)NC(=O)c1cc(C(C)O)[nH]n1 (stereo unspecified) + COc1c(OCCCN2CCOCC2)ccc2c3n(c(=NC(=O)c4cnc(N)nc4)nc12)CCN3
4. Cn1ncc(Cl)c1-c1cc(C(=O)NC(CN)Cc2cccc(F)c2)sc1Cl (stereo unspecified) + CC(Nc1ccc2c(c1)OCCn1cc(N3C(=O)OCC3C(F)F)nc1-2)C(N)=O
5. CNC(=O)c1ccc(N2C(=S)N(c3ccc(C#N)c(C(F)(F)F)c3)C(=O)C2(C)C)cc1F + COc1c(OCCCN2CCOCC2)ccc2c3n(c(=NC(=O)c4cnc(N)nc4)nc12)CCN3
6. CC(C)NCC(C(=O)N1CCN(c2ncnc3c2C(C)CC3O)CC1)c1ccc(Cl)cc1 (stereo unspecified) + CC(Nc1ccc2c(c1)OCCn1cc(N3C(=O)OCC3C(F)F)nc1-2)C(N)=O
7. C=CC(=O)N1CCN(c2nc(=O)n(-c3c(C)ccnc3C(C)C)c3nc(-c4c(O)cccc4F)c(F)cc23)C(C)C1 (stereo unspecified) + COc1c(OCCCN2CCOCC2)ccc2c3n(c(=NC(=O)c4cnc(N)nc4)nc12)CCN3
8. C[C@@H](NC(=O)c1ncnc(N)c1Cl)c1ncc(C(=O)Nc2cc(C(F)(F)F)c(Cl)cn2)s1 + COc1c(OCCCN2CCOCC2)ccc2c3n(c(=NC(=O)c4cnc(N)nc4)nc12)CCN3

Found:
1: 116%; 2: 93.3%; 3: 89.5%; 4: 102%; 5: 98.8%; 6: 102%; 7: 41.4%; 8: 95.9%

Parameters: items (list). Returns: viability, T/C for each item.
1. CC1(C)CCC(CN2CCN(c3ccc(C(=O)NS(=O)(=O)c4ccc(NCC5CCOCC5)c([N+](=O)[O-])c4)c(Oc4cnc5[nH]ccc5c4)c3)CC2)=C(c2ccc(Cl)cc2)C1 + CC(Nc1ccc2c(c1)OCCn1cc(N3C(=O)OCC3C(F)F)nc1-2)C(N)=O
2. C#Cc1c(F)ccc2cc(O)cc(-c3ncc4c(N5CC6CCC(C5)N6)nc(OCC56CCCN5CC(F)C6)nc4c3F)c12 (stereo unspecified) + CC(Nc1ccc2c(c1)OCCn1cc(N3C(=O)OCC3C(F)F)nc1-2)C(N)=O
3. Cn1ncc(Cl)c1-c1cc(C(=O)NC(CN)Cc2cccc(F)c2)sc1Cl (stereo unspecified) + COc1c(OCCCN2CCOCC2)ccc2c3n(c(=NC(=O)c4cnc(N)nc4)nc12)CCN3

Found:
1. 6.45%
2. 91.3%
3. 76%

====

Exercise: state measured viability, T/C for each of the compounds provided.
# Test system: K98450-129-R-PDC multicell spheroids, viability
# measurement notes: Anticancer human tumor K98450-129-R-PDC cell line growth inhibition [PI3K];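 further: spheroids exposed to agents for seven days before read-out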
# conditions used: second compound 3.16 µM; first compound 0.0316 µM; stronger effect = lower value

Some entries whose results are on file:
compound="C#Cc1c(F)ccc2cc(O)cc(-c3ncc4c(N5CC6CCC(C5)N6)nc(OCC56CCCN5CC(F)C6)nc4c3F)c12 (stereo not drawn) + CC(Nc1ncnc2nc[nH]c12)c1cc2cccc(Cl)c2c(=O)n1-c1ccccc1" reported_result=89.4%
compound="Cn1ncc(Cl)c1-c1cc(C(=O)NC(CN)Cc2cccc(F)c2)sc1Cl (stereo not drawn) + CC(Nc1ncnc2nc[nH]c12)c1cc2cccc(Cl)c2c(=O)n1-c1ccccc1" reported_result=87.3%

Lab note: compound C=CC(=O)N1CCN(c2nc(=O)n(-c3c(C)ccnc3C(C)C)c3nc(-c4c(O)cccc4F)c(F)cc23)C(C)C1 (stereo not drawn) + Cc1nc(NC(=O)N2CCCC2C(N)=O)sc1-c1ccnc(C(C)(C)C(F)(F)F)c1 tested on K98450-129-R-PDC multicell spheroids, viability; recorded viability, T/C was 83.7%
